Hello, the source for this data is patent US20230321253A1, in case you need it.

- target_of_assay: KRAS-G12D protein (Homo sapiens, UniProt P01116, G12D)
- Construct: host or cells: Aspc-1 cells
- Sequence (P01116 1-188 isoform P01116-2 G12D): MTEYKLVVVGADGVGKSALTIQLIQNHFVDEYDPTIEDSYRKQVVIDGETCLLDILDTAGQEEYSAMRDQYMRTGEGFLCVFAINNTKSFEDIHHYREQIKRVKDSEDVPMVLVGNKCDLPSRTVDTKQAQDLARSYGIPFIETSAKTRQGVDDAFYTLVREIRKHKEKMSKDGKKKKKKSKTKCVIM
- test_name: KRAS-G12D protein degradation study in Aspc-1 cells (western blot)
- Format: cell-based
- stated_conditions: Aspc-1 cells; read-out: DC50 of test compound-induced KRAS^G12D protein degradation
parameter: DC50

Query string: Recorded DC50 of C#Cc1c(F)ccc2cc(O)cc(-c3ncc4c(N5CC6CCC(C5)N6)nc(OCCCN5CCC(C(=O)N6CCC(N7CCC(c8ccc9c(C%10CCC(=O)NC%10=O)nn(C)c9c8)CC7)CC6)CC5)nc4c3F)c12 (stereo not drawn) [Compound 75] , please.
Result string: < 10 nM

Query string: Recorded DC50 of C#Cc1c(F)ccc2cc(O)cc(-c3ncc4c(N5CC6CCC(C5)N6)nc(OCC5(CN6CCC(CN7CCC(c8ccc9c(C%10CCC(=O)NC%10=O)nn(C)c9c8)CC7)CC6)CC5)nc4c3F)c12 (stereo not drawn) [Compound 133] , please.
Result string: < 10 nM

Query string: Recorded DC50 of C#Cc1c(F)ccc2cc(O)cc(-c3ncc4c(N5CC6CCC(C5)N6)nc(OCC56CCCN5[C@@H](COC(=O)NCCCCCCCCCCC(=O)N[C@H](C(=O)N5C[C@H](O)C[C@H]5C(=O)N[C@@H](C)c5ccc(-c7scnc7C)cc5)C(C)(C)C)CC6)nc4c3F)c12 (stereo partly drawn) [Compound 93] , please.
Result string: 51 to 100 nM

###

- target_of_assay: KRAS-G12D protein (Homo sapiens, UniProt P01116, G12D)
- Construct: host or cells: Aspc-1 cells
- test_name: KRAS-G12D protein degradation study in Aspc-1 cells (western blot)
- Format: cell-based
- stated_conditions: ASPC1, 24 h, Aspc-1 cells treated with 1 μM compound, 24 hours; read-out: Rate of protein degradation (KRAS^G12D)
So I've got a bunch of compounds here, and I need their inhibition at 1 µM values.

Query string: Recorded inhibition at 1 µM of C#Cc1c(F)ccc2cc(O)cc(-c3ncc4c(N5CC6CCC(C5)N6)nc(OCCCN5CCN(CCCC(=O)N[C@H](C(=O)N6C[C@H](O)C[C@H]6C(=O)NCc6ccc(-c7scnc7C)cc6)C(C)(C)C)CC5)nc4c3F)c12 [Compound 30] , please.
Result string: 11 to 30%

Query string: Recorded inhibition at 1 µM of C#Cc1c(F)ccc2cc(O)cc(-c3ncc4c(N5CC6CCC(C5)N6)nc(OCCCN5CCN(CC(=O)N6CCN(c7ccc8c(c7)C(=O)N(C7CCC(=O)NC7=O)C8=O)CC6)CC5)nc4c3F)c12 (stereo not shown) [Compound 59] , please.
Result string: ≤ 10%

Query string: Recorded inhibition at 1 µM of C#Cc1c(F)ccc2cc(O)cc(-c3ncc4c(N5CC6CCC(C5)N6)nc(OC5CCN(CCOCCOCCOCC(=O)N[C@H](C(=O)N6C[C@H](O)C[C@H]6C(=O)NCc6ccc(-c7scnc7C)cc6)C(C)(C)C)CC5)nc4c3F)c12 [Compound 54] , please.
Result string: ≤ 10%

Query string: Recorded inhibition at 1 µM of C#Cc1c(F)ccc2cc(O)cc(-c3ncc4c(N5CC6CCC(C5)N6)nc(OCCCN5CCN(C(=O)CN6CCN(c7ccc8c(c7)C(=O)N(C7CCC(=O)NC7=O)C8=O)CC6)CC5)nc4c3F)c12 (stereo not shown) [Compound 60] , please.
Result string: 11 to 30%

###

- target_of_assay: KRAS-G12D protein (Homo sapiens, UniProt P01116, G12D)
- Construct: host or cells: Aspc-1 cells
- test_name: KRAS-G12D protein degradation study in Aspc-1 cells (western blot)
- Type: cell-based
- stated_conditions: Aspc-1 cells; read-out: DC50 of test compound-induced KRAS^G12D protein degradation
So I've got a bunch of compounds here, and I need their DC50 values.

Query string: Recorded DC50 of C#Cc1c(F)ccc2cc(O)cc(-c3ncc4c(N5CC6CCC(C5)N6)nc(OCC5(CN6CCN(C(=O)CN7CCC(c8ccc9c(C%10CCC(=O)NC%10=O)nn(C)c9c8)CC7)CC6)CC5)nc4c3F)c12 (centres unmarked) [Compound 92] , please.
Result string: < 0.01 µM

Query string: Recorded DC50 of C#Cc1c(F)ccc2cc(O)cc(-c3ncc4c(N5CC6CCC(C5)N6)nc(OCC5(CN6CCC(c7ccc8c(C9CCC(=O)NC9=O)nn(C)c8c7)CC6)CC5)nc4c3F)c12 (centres unmarked) [Compound 99] , please.
Result string: 0.011 to 0.05 µM

Query string: Recorded DC50 of C#Cc1c(F)ccc2cc(O)cc(-c3ncc4c(N5CC6CCC(C5)N6)nc(OCC5(CN6CCC(N7CCC(c8ccc9c(C%10CCC(=O)NC%10=O)nn(C)c9c8)CC7)CC6)CC5)nc4c3F)c12 (centres unmarked) [Compound 113] , please.
Result string: < 0.01 µM

Query string: Recorded DC50 of C#Cc1c(F)ccc2cc(O)cc(-c3ncc4c(N5CC6CCC(C5)N6)nc(OCC5(CN6CCC7(CC6)CCN(c6ccc(NC8CCC(=O)NC8=O)cc6F)CC7)CC5)nc4c3F)c12 (centres unmarked) [Compound 110] , please.
Result string: < 0.01 µM

Query string: Recorded DC50 of C#Cc1c(F)ccc2cc(O)cc(-c3ncc4c(N5CC6CCC(C5)N6)nc(OCC5(CN6CCC(C(=O)N7CCC8(CC7)CC(N7CCC(c9ccc%10c(C%11CCC(=O)NC%11=O)nn(C)c%10c9)CC7)C8)CC6)CC5)nc4c3F)c12 (centres unmarked) [Compound 111] , please.
Result string: < 0.01 µM

###

- target_of_assay: KRAS-G12D protein (Homo sapiens, UniProt P01116, G12D)
- Construct: host or cells: Aspc-1 cells
- test_name: KRAS-G12D protein degradation study in Aspc-1 cells (western blot)
- Assay type: cell-based
- stated_conditions: Aspc-1 cells; read-out: DC50 of test compound-induced KRAS^G12D protein degradation
So I've got a bunch of compounds here, and I need their DC50 values.

Query string: Request - read-out DC50 | tested on KRAS-G12D protein (Homo sapiens, UniProt P01116, G12D) | compound C#Cc1c(F)ccc2cc(O)cc(-c3ncc4c(N5CC6CCC(C5)N6)nc(OCC5(CN6CCC7(CC6)CC(N6CCC(c8ccc9c(C%10CCC(=O)NC%10=O)nn(C)c9c8)CC6)C7)CC5)nc4c3F)c12 (centres unmarked)
Result string: < 10 nM

Query string: Request - read-out DC50 | tested on KRAS-G12D protein (Homo sapiens, UniProt P01116, G12D) | compound C#Cc1c(F)ccc2cc(O)cc(-c3ncc4c(N5CC6CCC(C5)N6)nc(OCC5(CN6CCC(CN7CCC(c8ccc9c(c8)CN(C8CCC(=O)NC8=O)C9=O)CC7)CC6)CC5)nc4c3F)c12 (centres unmarked)
Result string: < 10 nM

Query string: Request - read-out DC50 | tested on KRAS-G12D protein (Homo sapiens, UniProt P01116, G12D) | compound CCc1c(F)ccc2cc(O)cc(-c3ncc4c(N5CC6CCC(C5)N6)nc(OCC5(CN6CCC(C(=O)N7CCC8(CC7)CC(N7CCC(c9ccc%10c(C%11CCC(=O)NC%11=O)nn(C)c%10c9)CC7)C8)CC6)CC5)nc4c3F)c12 (centres unmarked)
Result string: < 10 nM

Query string: Request - read-out DC50 | tested on KRAS-G12D protein (Homo sapiens, UniProt P01116, G12D) | compound C#Cc1c(F)ccc2cc(O)cc(-c3ncc4c(N5CC6CCC(C5)N6)nc(OCC5(CN6CCC(CCN7CCC(c8ccc9c(C%10CCC(=O)NC%10=O)nn(C)c9c8)CC7)CC6)CC5)nc4c3F)c12 (centres unmarked)
Result string: < 10 nM

Query string: Request - read-out DC50 | tested on KRAS-G12D protein (Homo sapiens, UniProt P01116, G12D) | compound C#Cc1c(F)ccc2cc(O)cc(-c3ncc4c(N5CC6CCC(C5)N6)nc(OCC5(CN6CCN(CC7CCN(c8ccc9c(c8)C(=O)N(C8CCC(=O)NC8=O)C9=O)CC7)CC6)CC5)nc4c3F)c12 (centres unmarked)
Result string: 11 to 50 nM
